meta.source: the supplement of paper PMC7156485

# Tested on: TDF;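 further: TDF is a line of transformed human dermal fibroblasts of mesenchymal origin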
# assay-remarks: H1.0 immunofluorescence intensity relative to DMSO (% of DMSO); higher = stronger H1.0 induction, active = 120 or more
# conditions: concentration: 10 µM; 24 h
reported-property: H1.0 immunofluorescence intensity
Number only, no unit.

Worked cases, answers included:
CC(=O)OC1C(C)OC(Oc2c(-c3ccc(O)cc3)oc3cc(O)cc(O)c3c2=O)C(O)C1OC(C)=O (stereo unspecified); 102
CN1C(C)(C)CCCC1(C)C.O=C(O)C(O)C(O)C(=O)O [Pempidine tartrate]; 99.5
COc1cc2c(cc1CC=C(C)C)C(=O)CC(c1ccc(O)cc1)O2 (stereo unspecified); 99.5
Nc1ncnc2c1ncn2C1OC(C(=O)NC2CC2)C(O)C1O (stereo unspecified); 97.8

Please indicate H1.0 immunofluorescence intensity recorded for `c1ccc(-c2cnc(Nc3ccc(OCCN4CCCC4)cc3)s2)cc1` 97.1

Please indicate H1.0 immunofluorescence intensity recorded for N=C(N)c1ccc(OCCCCCOc2ccc(C(=N)N)cc2)cc1.O=S([O-])OCCO.O=S([O-])OCCO [Pentamidine isethionate] 103

* * *

# System: TDF;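 further: TDF is a line of transformed human dermal fibroblasts of mesenchymal origin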
# assay-remarks: H1.0 immunofluorescence intensity relative to DMSO (% of DMSO); higher = stronger H1.0 induction, active = 120 or more
# conditions: concentration: 10 µM; 24 h
Pick one and only one: active, inactive

CC1=C(C(=O)O)N2C(=O)C(NC(=O)C(N)C3=CCC=CC3)C2SC1 (configuration not stated) [Cephadrine]; inactive
CCn1c(-c2nonc2N)nc2c(C#CC(C)(C)O)ncc(OCC3CCCNC3)c21 (configuration not stated); inactive
Cn1c(=O)c2[nH]c(-c3ccccc3)nc2n(C)c1=O [1,3-Dimethyl-8-phenylxanthine]; inactive
Cn1cnc2c(NC3CCCC3)ncnc21 [N6-Cyclopentyl-9-methyladenine]; inactive
CC(C)(C)NC(=O)C1CCC2C3CCC4NC(=O)C=CC4(C)C3CCC12C (configuration not stated) [Finasteride]; inactive

Just curious, what result did `Cc1cn2cc(C(=O)N(C)CCO)cc(N[C@@H]3CCOc4cccc(C)c43)c2n1` get here? inactive

Just curious, what result did CCCCCCCCCCCCCCCC(O)C(CO)NC(C)=O (configuration not stated) [C2 Dihydroceramide] get here? inactive

Just curious, what result did O=c1[nH]c(=O)c2nc3ccccc3nc2[nH]1 [Alloxazine] get here? inactive

Just curious, what result did O=c1oc(Cl)c(Cl)c2ccccc12 [3,4-Dichloroisocoumarin] get here? inactive

Just curious, what result did C=C1CCC(O)CC1=CC=C1CCCC2(C)C1CCC2C(C)CCC(O)C(C)(C)O [24(R),25-Dihydroxyvitamin D3] get here? inactive

Just curious, what result did NC(N)=S [Thiourea] get here? inactive

Just curious, what result did CCCCCCCCCCCC=CCCCCC(=O)O [6(Z)-Octadecenoic acid] get here? inactive

* * *

# Test system: TDF;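 further: TDF is a line of transformed human dermal fibroblasts of mesenchymal origin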
# assay-remarks: H1.0 immunofluorescence intensity relative to DMSO (% of DMSO); higher = stronger H1.0 induction, active = 120 or more
# conditions: concentration: 10 µM; 24 h
reported-property: H1.0 immunofluorescence intensity
Number only, no unit.

Worked cases, answers included:
Nc1nc(OCc2cc(Br)cs2)c2[nH]cnc2n1 [6-[(4-bromo-2-thienyl)methoxy]-1H-purin-2-amine]; 97.7
OC1C=CC(Br)C(O)C1O (mixture of isomers) [6-Bromo-4-cyclohexene-1,2,3-triol Mixed Isomers]; 97.5

Please indicate H1.0 immunofluorescence intensity recorded for `O=C(O)c1cc(O)ccc1O` 98.5
